Test: Oral bioavailability in Beagle dog at 5 mg/kg administered as solution in 98% citrate buffer/2% sulfobutylether-beta-cyclodextrin by LC-MS/MS analysis
Assay type: ADME, organism-based, Canis lupus familiaris
Run Parameters: in vivo
Assay Endpoint: bioavailability
Answer format: number, then unit.

Exercise: I am curious: what bioavailability value has been reported for C=C(C)[C@@H]1CC[C@]2(NCC[C@]3(O)CC[C@@H](S(C)(=O)=O)CC3)CC[C@]3(C)[C@H](CC[C@@H]4[C@@]5(C)CC=C(C6=CC[C@](CF)(C(=O)O)CC6)C(C)(C)[C@@H]5CC[C@]43C)[C@@H]12 ?
Key: 21%

* * *

System: Human immunodeficiency virus 1
Test: Antiviral activity against wild type HIV-1 NLRepRlucP373S harboring A326T/V362I/V370A mutant infected in human MT2 cells assessed as inhibition of viral growth measured after 4 to 5 days by Dual luciferase reporter assay
Assay type: functional, organism-based
Run Parameters: Human immunodeficiency virus 1, NLRepRlucP373S
Assay Endpoint: EC50 (nM)
Numbers only; they are read as nM.

Smiles	EC50 [nM]
C=C(C)[C@@H]1CC[C@]2(NCC[C@]3(O)CC[C@](C)(O)CC3)CC[C@]3(C)[C@H](CC[C@@H]4[C@@]5(C)CC=C(C6=CC[C@](CF)(C(=O)O)CC6)C(C)(C)[C@@H]5CC[C@]43C)[C@@H]12	8
C=C(C)[C@@H]1CC[C@]2(NCCN3CCS(=O)(=O)CC3)CC[C@]3(C)[C@H](CC[C@@H]4[C@@]5(C)CC=C(C6=CC[C@@](CF)(C(=O)O)CC6)C(C)(C)[C@@H]5CC[C@]43C)[C@@H]12	26
C=C(C)[C@@H]1CC[C@]2(NCCC3(O)COC3)CC[C@]3(C)[C@H](CC[C@@H]4[C@@]5(C)CC=C(C6=CC[C@](CF)(C(=O)O)CC6)C(C)(C)[C@@H]5CC[C@]43C)[C@@H]12	6.6

Turning to the following compound.
Exercise: I am curious: what EC50 value has been reported for C=C(C)[C@@H]1CC[C@]2(NCC[C@]3(O)CC[C@@H](S(C)(=O)=O)CC3)CC[C@]3(C)[C@H](CC[C@@H]4[C@@]5(C)CC=C(C6=CC[C@](CF)(C(=O)O)CC6)C(C)(C)[C@@H]5CC[C@]43C)[C@@H]12 ?
Key: 4.3

* * *

Measured half-life at 0.5 µM of individual entries
Test: Metabolic stability in dog liver microsomes assessed as half life at 0.5 uM in presence of NADPH by LC-MS/MS analysis
Type: ADME, Canis lupus familiaris, Microsome

Some solved cases for reference:
Smiles	half-life at 0.5 µM
C=C(C)[C@@H]1CC[C@]2(NCC[C@]3(O)CC[C@](C)(O)CC3)CC[C@]3(C)[C@H](CC[C@@H]4[C@@]5(C)CC=C(C6=CC[C@](CF)(C(=O)O)CC6)C(C)(C)[C@@H]5CC[C@]43C)[C@@H]12	> 2 h
C=C(C)[C@@H]1CC[C@]2(NCCC3(O)COC3)CC[C@]3(C)[C@H](CC[C@@H]4[C@@]5(C)CC=C(C6=CC[C@](CF)(C(=O)O)CC6)C(C)(C)[C@@H]5CC[C@]43C)[C@@H]12	> 2 h
C=C(C)[C@@H]1CC[C@]2(NCCN3CCS(=O)(=O)CC3)CC[C@]3(C)[C@H](CC[C@@H]4[C@@]5(C)CC=C(C6=CC[C@@](CF)(C(=O)O)CC6)C(C)(C)[C@@H]5CC[C@]43C)[C@@H]12	1.47 h

Turning to the following compound.
Exercise: I am curious: what half-life at 0.5 µM value has been reported for C=C(C)[C@@H]1CC[C@]2(NCC[C@]3(O)CC[C@@H](S(C)(=O)=O)CC3)CC[C@]3(C)[C@H](CC[C@@H]4[C@@]5(C)CC=C(C6=CC[C@](CF)(C(=O)O)CC6)C(C)(C)[C@@H]5CC[C@]43C)[C@@H]12 ?
Key: > 2 h

* * *

Test: MRT in Sprague-Dawley rat at 1 mg/kg, iv by LC-MS/MS analysis
Type: ADME, organism-based
Run Parameters: in vivo
Assay Endpoint: MRT (h)
Numbers only; they are read as h.

Smiles	Result
C=C(C)[C@@H]1CC[C@]2(NCCC3(O)COC3)CC[C@]3(C)[C@H](CC[C@@H]4[C@@]5(C)CC=C(C6=CC[C@](CF)(C(=O)O)CC6)C(C)(C)[C@@H]5CC[C@]43C)[C@@H]12	2.7

Exercise: I am curious: what MRT value has been reported for C=C(C)[C@@H]1CC[C@]2(NCCN3CCS(=O)(=O)CC3)CC[C@]3(C)[C@H](CC[C@@H]4[C@@]5(C)CC=C(C6=CC[C@@](CF)(C(=O)O)CC6)C(C)(C)[C@@H]5CC[C@]43C)[C@@H]12 ?
Key: 4.9

Exercise: I am curious: what MRT value has been reported for C=C(C)[C@@H]1CC[C@]2(NCC[C@]3(O)CC[C@](C)(O)CC3)CC[C@]3(C)[C@H](CC[C@@H]4[C@@]5(C)CC=C(C6=CC[C@](CF)(C(=O)O)CC6)C(C)(C)[C@@H]5CC[C@]43C)[C@@H]12 ?
Key: 3.6

Exercise: I am curious: what MRT value has been reported for C=C(C)[C@@H]1CC[C@]2(NCC[C@]3(O)CC[C@@H](S(C)(=O)=O)CC3)CC[C@]3(C)[C@H](CC[C@@H]4[C@@]5(C)CC=C(C6=CC[C@](CF)(C(=O)O)CC6)C(C)(C)[C@@H]5CC[C@]43C)[C@@H]12 ?
Key: 3.8

* * *

Test: AUCt in Beagle dog at 5 mg/kg, po administered as spray-dried dispersion in 99.5% water/0.5% methocel E4M by LC-MS/MS analysis
Type: ADME, organism-based, Canis lupus familiaris
Design: dose 5 mg/kg, route po
Run Parameters: in vivo
Assay Endpoint: AUC(0-t) (µM·h)
Numbers only; they are read as µM·h.

Exercise: I am curious: what AUC(0-t) value has been reported for C=C(C)[C@@H]1CC[C@]2(NCC[C@]3(O)CC[C@@H](S(C)(=O)=O)CC3)CC[C@]3(C)[C@H](CC[C@@H]4[C@@]5(C)CC=C(C6=CC[C@](CF)(C(=O)O)CC6)C(C)(C)[C@@H]5CC[C@]43C)[C@@H]12 ?
Key: 35.3

* * *

Measured CC50 of individual entries
Test: Cytotoxicity against human MT2 cells assessed as reduction in cell viability
Type: toxicity, cell-based
Numbers only; they are read as µM.

Some solved cases for reference:
Smiles	Units Of Measure	CC50
C=C(C)[C@@H]1CC[C@]2(NCCC3CCS(=O)(=O)CC3)CC[C@]3(C)[C@H](CC[C@@H]4[C@@]5(C)CC=C(C6=CC[C@](CF)(C(=O)O)CC6)C(C)(C)[C@@H]5CC[C@]43C)[C@@H]12	µM	14
C=C(C)[C@@H]1CC[C@]2(NCCC3(O)COC3)CC[C@]3(C)[C@H](CC[C@@H]4[C@@]5(C)CC=C(C6=CC[C@@](CF)(C(=O)O)CC6)C(C)(C)[C@@H]5CC[C@]43C)[C@@H]12	µM	13
C=C(C)[C@@H]1CC[C@]2(NCCC3(O)CCS(=O)(=O)CC3)CC[C@]3(C)[C@H](CC[C@@H]4[C@@]5(C)CC=C(C6=CC[C@](CF)(C(=O)O)CC6)C(C)(C)[C@@H]5CC[C@]43C)[C@@H]12	µM	14
C=C(C)[C@@H]1CC[C@]2(NCCN3CCC(C)(O)CC3)CC[C@]3(C)[C@H](CC[C@@H]4[C@@]5(C)CC=C(C6=CC[C@](CF)(C(=O)O)CC6)C(C)(C)[C@@H]5CC[C@]43C)[C@@H]12	µM	14
C=C(C)[C@@H]1CC[C@]2(NCC[C@]3(O)CC[C@@H](S(C)(=O)=O)CC3)CC[C@]3(C)[C@H](CC[C@@H]4[C@@]5(C)CC=C(C6=CC[C@@](CF)(C(=O)O)CC6)C(C)(C)[C@@H]5CC[C@]43C)[C@@H]12	µM	17

Exercise: I am curious: what CC50 value has been reported for C=C(C)[C@@H]1CC[C@]2(NCC[C@]3(O)CC[C@](C)(O)CC3)CC[C@]3(C)[C@H](CC[C@@H]4[C@@]5(C)CC=C(C6=CC[C@](CF)(C(=O)O)CC6)C(C)(C)[C@@H]5CC[C@]43C)[C@@H]12 ?
Key: 16

Exercise: I am curious: what CC50 value has been reported for C=C(C)[C@@H]1CC[C@]2(NCCC3(O)CCN(S(C)(=O)=O)CC3)CC[C@]3(C)[C@H](CC[C@@H]4[C@@]5(C)CC=C(C6=CC[C@](CF)(C(=O)O)CC6)C(C)(C)[C@@H]5CC[C@]43C)[C@@H]12 ?
Key: 23

Exercise: I am curious: what CC50 value has been reported for C=C(C)[C@@H]1CC[C@]2(NCC[C@]3(O)CC[C@](C)(O)CC3)CC[C@]3(C)[C@H](CC[C@@H]4[C@@]5(C)CC=C(C6=CC[C@@](CF)(C(=O)O)CC6)C(C)(C)[C@@H]5CC[C@]43C)[C@@H]12 ?
Key: 11
